The following sequences are listed with their measured apparent KD of K4 kissing-loop reporter values.
tested on: K4 kissing-loop RNA reporter; experiment: apparent KD of K4 kissing-loop reporter; higher = weaker reporter binding; details: Eterna round: R107; input ligand: arginine 13.2 mM
# number only, unit nM dropped from output

Known results for sequences:
residue_string: AUGCGCGCGGCGGCCGCCACUCGCAUGAGAGUGAUGUUCUCGCCGGGCCCGAAAGGGCCCGGUGUGAGGACCGGGCCGGGCUGCG [#2 Same State - Tryptophan B Attempt #15 (HarryS)]
target_under_test: K4 kissing-loop RNA reporter
apparent KD of K4 kissing-loop reporter, nM: 64.9
--
residue_string: ACUGCCAUUGCGGCCGCCACUAUCUCACUUUGCGAAUCUGCACCGACUGAGUGAUGUUCGGUAAAUAGGACCGGGCAAUGGGCCG [theeternabot_sameState_KL_Trp_B_26]
target_under_test: K4 kissing-loop RNA reporter;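 further: bound reporter read as fluorescence of individual clusters on recovered sequencing chips by microscopy, with normalized cluster intensities fitted with a binding model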
apparent KD of K4 kissing-loop reporter, nM: 479

Sample AGCGACUCUUCGGAGUCGCGGCUAAGGGAUACCAGUGAUGUUGGUCACCCUUGGCAGCCCAGAAGCCAAGCCACCAAAGGUGGCA [Omei KL Theo A Exc A v5] ; apparent KD of K4 kissing-loop reporter observed: 98.6

The reported numbers originate from the supplement of paper PMC9170038.
